# ASSAY_METHOD_TEXT: basal HepG2 mitochondrial membrane potential changes, profiling panel, cell-based, JC-1 fluorescence, 24 h, 100 nL compound (AID 1167); note: test concentration not given here
# PROTOCOL_CONDITIONS: higher = more signal
VALUE_KIND: z-score

> print(dat)
                                   compound  assay.value
1  CCOC(=O)C1=CC[C@@H](c2cc(Cl)ccc2Cl)N(S(=O)(=O)c2ccc(C)cc2)[C@H]1c1ccc(OC)cc1         1.17
2  C=CCN1C(=O)[C@@]2(CCC(=O)OC(C)(C)C)N=C(c3ccc(OCCCO)cc3)O[C@H]2c2ccccc21        -1.62
3  CN1C(=O)C2C(C1=O)C1C=C(c3ccc(CO)cc3)C2C(c2cccs2)N1Cc1cccc(OC(F)(F)F)c1 (centres undefined)        -1.71
4  C=C(CCCC)/C(=C/C[C@@H](OC(=O)c1ccncc1)c1cccc(OCCO)c1)c1cnc2ccccc2c1         1.99

Origin of the recorded values: PubChem BioAssay
